Measured pIC50 values are reported for all entries that follow.
molecular target: rat CB-1 receptor (Rattus norvegicus); construct: The tissue obtained from the brain of SD rats was homogenized; from tissue; host or cells: brain of SD rats (membrane pellet of homogenate); assay: rat CB-1 receptor binding protocol with [3H]CP-55940; conditions: [3H]CP-55940, brain tissue of SD rats, 30 °C for 60 min; read-out: IC50
pIC50: −log10 of the molar value.
attribute.measured: pIC50

{"columns": ["chemical.string", "value.measured"],
 "data": [
  ["CCCCc1cnc(-c2nc(-c3ccc(Cl)cc3Cl)n(-c3ccc(Cl)cc3)c2C)s1", 7.20],
  ["FC(F)(F)C1(c2nnc(-c3nc(-c4ccccc4Cl)n(-c4ccc(Br)cc4)c3Cn3cncn3)s2)CC1", 8.33],
  ["CCCc1c(-c2nnc(C3(c4ccc(Cl)cc4)CCC3)s2)nc(-c2ccc(Cl)cc2Cl)n1-c1ccc(Cl)cc1", 8.46],
  ["CCc1sc(-c2nc(-c3ccc(Cl)cc3Cl)n(-c3ccc(Cl)cc3)c2C)nc1C", 7.04]
]}

====

molecular target: rat CB-1 receptor (Rattus norvegicus); construct: The tissue obtained from the brain of SD rats was homogenized; from tissue; host or cells: brain of SD rats (membrane pellet of homogenate); test: rat CB-1 receptor binding protocol with [3H]CP-55940; conditions: [3H]CP-55940, brain tissue of SD rats, 30 °C for 60 min; read-out: IC50
attribute.measured: IC50 (nM)

{"columns": ["compound", "value.measured"],
 "data": [
  ["CCc1c(-c2nc(C(C)(C)C)co2)nc(-c2ccc(Cl)cc2Cl)n1-c1ccc(Cl)cc1", 119],
  ["CCc1c(-c2nnc(C3(c4ccc(Cl)cc4)CC3)o2)nc(-c2ccccc2Cl)n1-c1ccc(Br)cc1", 10.3],
  ["CCc1c(-c2nnc(C3(c4ccc(Cl)cc4Cl)CC3)s2)nc(-c2ccc(Cl)cc2Cl)n1-c1ccc(Br)cc1", 6.57],
  ["CCC(C)c1nnc(-c2nc(-c3ccc(Cl)cc3Cl)n(-c3ccc(Cl)cc3)c2C)s1 (stereo not shown)", 28.1]
]}

====

Listed below: IC50 values for each entry.
molecular target: rat CB-1 receptor (Rattus norvegicus, UniProt P20272); construct: The tissue obtained from the brain of SD rats was homogenized; from tissue; host or cells: brain of SD rats (membrane pellet of homogenate); assay: rat CB-1 receptor binding protocol with [3H]CP-55940; conditions: [3H]CP-55940, brain tissue of SD rats, 30 °C for 60 min; read-out: IC50
Sequence (P20272 whole entry): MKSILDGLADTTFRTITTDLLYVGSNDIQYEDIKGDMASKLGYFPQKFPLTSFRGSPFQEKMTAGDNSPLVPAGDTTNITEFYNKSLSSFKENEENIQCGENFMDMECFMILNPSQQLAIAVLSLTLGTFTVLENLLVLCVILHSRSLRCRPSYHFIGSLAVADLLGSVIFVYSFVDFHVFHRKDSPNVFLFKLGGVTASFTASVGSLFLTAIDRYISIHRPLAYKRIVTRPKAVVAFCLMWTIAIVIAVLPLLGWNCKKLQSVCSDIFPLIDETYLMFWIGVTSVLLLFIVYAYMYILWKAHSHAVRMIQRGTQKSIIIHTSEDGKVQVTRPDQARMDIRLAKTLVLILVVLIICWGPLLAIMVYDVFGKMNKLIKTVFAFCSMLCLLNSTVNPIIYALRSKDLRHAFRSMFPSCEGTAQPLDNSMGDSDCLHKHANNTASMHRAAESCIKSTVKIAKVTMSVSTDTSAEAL
attribute.measured: IC50

{"columns": ["molecule", "value.measured"],
 "data": [
  ["Cc1c(-c2nnc(C(C)(C)C)o2)nc(-c2ccc(Cl)cc2Cl)n1-c1ccc(Cl)cc1 [Example 1]", "0.0132 µM"],
  ["CCCc1c(-c2nnc(C3CCCCC3)o2)nc(-c2ccc(Cl)cc2Cl)n1-c1ccc(Br)cc1 [Example 30]", "0.392 µM"],
  ["CCc1c(-c2nnc(C3(c4ccccc4)CC3)s2)nc(-c2ccc(Cl)cc2Cl)n1-c1ccc(Br)cc1 [Example 117]", "0.00829 µM"],
  ["Cc1c(-c2nnc(C3(C(F)(F)F)CC3)s2)nc(-c2ccc(Cl)cc2Cl)n1-c1ccc(Br)cc1 [Example 136]", "0.0471 µM"],
  ["FC(F)(F)C1(c2nnc(-c3nc(-c4ccc(Cl)cc4Cl)n(-c4ccc(Br)cc4)c3Cn3cncn3)o2)CC1 [Example 75]", "0.00877 µM"],
  ["Cc1c(-c2ncc(C3CCCCC3)s2)nc(-c2ccc(Cl)cc2Cl)n1-c1ccc(Cl)cc1 [Example 193]", "0.0745 µM"],
  ["CCCCC(C)c1nnc(-c2nc(-c3ccc(Cl)cc3Cl)n(-c3ccc(Cl)cc3)c2CC)s1 (stereo not shown) [Example 105]", "0.00805 µM"]
]}

====

molecular target: rat CB-1 receptor (Rattus norvegicus); construct: The tissue obtained from the brain of SD rats was homogenized; from tissue; host or cells: brain of SD rats (membrane pellet of homogenate); experiment: rat CB-1 receptor binding protocol with [3H]CP-55940; settings: [3H]CP-55940, brain tissue of SD rats, 30 °C for 60 min; read-out: IC50
pIC50: −log10 of the molar value.
Could you label it MET if measured pIC50 is 8 or higher, and NOT MET otherwise?

{"columns": ["molecule", "target.under.test", "class.label"],
 "data": [
  ["CCc1c(-c2nnc(C3(c4ccc(Cl)cc4)CC3)s2)nc(-c2ccccc2Cl)n1-c1ccc(Br)cc1 [Example 148]", "rat CB-1 receptor (Rattus norvegicus)", "MET"],
  ["CCc1c(-c2nnc(C3(c4ccc(C)cc4)CC3)s2)nc(-c2ccc(Cl)cc2Cl)n1-c1ccc(Br)cc1 [Example 133]", "rat CB-1 receptor (Rattus norvegicus)", "MET"],
  ["CC(C)c1c(-c2nnc(C3(c4ccccc4)CC3)s2)nc(-c2ccc(Cl)cc2Cl)n1-c1ccc(Br)cc1 [Example 116]", "rat CB-1 receptor (Rattus norvegicus)", "MET"],
  ["Cc1c(-c2nnc(C3(c4ccc(Cl)cc4)CC3)o2)nc(-c2ccc(Cl)cc2Cl)n1-c1ccc(Br)cc1 [Example 48]", "rat CB-1 receptor (Rattus norvegicus)", "NOT MET"]
]}

====

target: rat CB-1 receptor (Rattus norvegicus, UniProt P20272); construct: The tissue obtained from the brain of SD rats was homogenized; from tissue; host or cells: brain of SD rats (membrane pellet of homogenate); assay: rat CB-1 receptor binding protocol with [3H]CP-55940; details: [3H]CP-55940, brain tissue of SD rats, 30 °C for 60 min; read-out: IC50
Measured log10 of IC50, listed per entry for reference.
attribute.measured: log10 of IC50 (log10 of the value in nM)

{"columns": ["molecule", "log10 of IC50"],
 "data": [
  ["Cc1c(-c2nnc(C(C)c3ccccc3)s2)nc(-c2ccc(Cl)cc2Cl)n1-c1ccc(Cl)cc1 (stereo not drawn)", 1.23],
  ["CCc1c(-c2nnc(C3CCCC3)s2)nc(-c2ccc(Cl)cc2Cl)n1-c1ccc(Cl)cc1", 1.25],
  ["Cc1c(-c2nnc(C3CCC3)o2)nc(-c2ccc(Cl)cc2Cl)n1-c1ccc(Cl)cc1", 1.59],
  ["CCCc1c(-c2nnc(C(C)(C)C)s2)nc(-c2ccc(Cl)cc2Cl)n1-c1ccc(Cl)cc1", 0.90],
  ["CCc1c(-c2nnc(C3CCCCC3)o2)nc(-c2ccc(Cl)cc2Cl)n1-c1ccc(Cl)cc1", 1.68],
  ["CCCc1c(-c2nnc(C3CCCCC3)s2)nc(-c2ccc(Cl)cc2Cl)n1-c1ccc(Cl)cc1", 1.71],
  ["Cc1c(-c2nnc(C3(c4ccc(Cl)cc4)CC3)s2)nc(-c2ccc(Cl)cc2Cl)n1-c1ccc(Br)cc1", 1.27],
  ["CCCc1c(-c2nnc(C3CCCCC3)s2)nc(-c2ccc(Cl)cc2Cl)n1-c1ccc(Br)cc1", 1.65],
  ["Cc1c(-c2nnc(C3(c4ccc(Cl)cc4)CC3)s2)nc(-c2ccccc2Cl)n1-c1ccc(Br)cc1", 0.34],
  ["CCC(CC)c1nnc(-c2nc(-c3ccc(Cl)cc3Cl)n(-c3ccc(Cl)cc3)c2C)o1", 1.35],
  ["CCc1c(-c2nnc(C3(c4ccc(Cl)cc4)CCCC3)s2)nc(-c2ccc(Cl)cc2Cl)n1-c1ccc(Br)cc1", 0.27],
  ["CCCc1c(-c2nnc(C3(c4ccc(Cl)cc4)CCC3)o2)nc(-c2ccc(Cl)cc2Cl)n1-c1ccc(Br)cc1", 0.96],
  ["FC(F)(F)C1(c2nnc(-c3nc(-c4ccc(Cl)cc4Cl)n(-c4ccc(Br)cc4)c3Cn3cncn3)s2)CC1", 0.75],
  ["CC(C)c1c(-c2nnc(C3(c4ccccc4)CC3)o2)nc(-c2ccc(Cl)cc2Cl)n1-c1ccc(Cl)cc1", 1.19],
  ["Cc1c(-c2nnc(C(C)C)s2)nc(-c2ccc(Cl)cc2Cl)n1-c1ccc(Cl)cc1", 1.35]
]}

====

molecular target: rat CB-1 receptor (Rattus norvegicus, UniProt P20272); construct: The tissue obtained from the brain of SD rats was homogenized; from tissue; host or cells: brain of SD rats (membrane pellet of homogenate); test: rat CB-1 receptor binding protocol with [3H]CP-55940; settings: [3H]CP-55940, brain tissue of SD rats, 30 °C for 60 min; read-out: IC50
In this section we review reported IC50 values for a set of molecules.
attribute.measured: IC50 (µM)

{"columns": ["chemical.string", "attribute.measured", "value.measured"],
 "data": [
  ["CC(C)(C)c1nnc(-c2nc(-c3ccc(Cl)cc3Cl)n(-c3ccc(Br)cc3)c2Cn2cncn2)s1", "IC50", 0.0209],
  ["CC(C)(C)c1nnc(-c2nc(-c3ccc(Cl)cc3Cl)n(-c3ccc(Br)cc3)c2Cn2cncn2)o1", "IC50", 0.00521],
  ["CCc1c(-c2nnc(C3CCC3)s2)nc(-c2ccc(Cl)cc2Cl)n1-c1ccc(Br)cc1", "IC50", 0.014],
  ["CCCc1c(-c2nnc(C3(c4ccccc4)CC3)o2)nc(-c2ccc(Cl)cc2Cl)n1-c1ccc(Br)cc1", "IC50", 0.0461]
]}
